tested on: K1735M4 tumor cell; assay: Melanoma cell adhesion to peptide-coated Immulon plates; assay type: cell-based, mouse; conditions: coated peptide 0.1-300 μM; cells adhered 1 h at 37 °C; one mole = three peptide chains; read-out: Half maximal melanoma cell adhesion (peptide concentration)
measure: pEC50
API: returns pEC50 as number; meaning -log10 of concentration in mol/L.

Q) Fill in the blank: the reported pEC50 of (Gly-Pro-Hyp)8 -Gly-Val-Lys-Gly-Asp-Lys-Gly-Asn-Pro-Gly-Trp-Pro-Gly-Ala-Pro [THP-2] is ____.
A) 5.95
